Molecular target: hNaV1.2-WT (Homo sapiens)
Construct: expressed in transfected cells; host or cells: HEK-293
Sequence (Q99250 whole entry): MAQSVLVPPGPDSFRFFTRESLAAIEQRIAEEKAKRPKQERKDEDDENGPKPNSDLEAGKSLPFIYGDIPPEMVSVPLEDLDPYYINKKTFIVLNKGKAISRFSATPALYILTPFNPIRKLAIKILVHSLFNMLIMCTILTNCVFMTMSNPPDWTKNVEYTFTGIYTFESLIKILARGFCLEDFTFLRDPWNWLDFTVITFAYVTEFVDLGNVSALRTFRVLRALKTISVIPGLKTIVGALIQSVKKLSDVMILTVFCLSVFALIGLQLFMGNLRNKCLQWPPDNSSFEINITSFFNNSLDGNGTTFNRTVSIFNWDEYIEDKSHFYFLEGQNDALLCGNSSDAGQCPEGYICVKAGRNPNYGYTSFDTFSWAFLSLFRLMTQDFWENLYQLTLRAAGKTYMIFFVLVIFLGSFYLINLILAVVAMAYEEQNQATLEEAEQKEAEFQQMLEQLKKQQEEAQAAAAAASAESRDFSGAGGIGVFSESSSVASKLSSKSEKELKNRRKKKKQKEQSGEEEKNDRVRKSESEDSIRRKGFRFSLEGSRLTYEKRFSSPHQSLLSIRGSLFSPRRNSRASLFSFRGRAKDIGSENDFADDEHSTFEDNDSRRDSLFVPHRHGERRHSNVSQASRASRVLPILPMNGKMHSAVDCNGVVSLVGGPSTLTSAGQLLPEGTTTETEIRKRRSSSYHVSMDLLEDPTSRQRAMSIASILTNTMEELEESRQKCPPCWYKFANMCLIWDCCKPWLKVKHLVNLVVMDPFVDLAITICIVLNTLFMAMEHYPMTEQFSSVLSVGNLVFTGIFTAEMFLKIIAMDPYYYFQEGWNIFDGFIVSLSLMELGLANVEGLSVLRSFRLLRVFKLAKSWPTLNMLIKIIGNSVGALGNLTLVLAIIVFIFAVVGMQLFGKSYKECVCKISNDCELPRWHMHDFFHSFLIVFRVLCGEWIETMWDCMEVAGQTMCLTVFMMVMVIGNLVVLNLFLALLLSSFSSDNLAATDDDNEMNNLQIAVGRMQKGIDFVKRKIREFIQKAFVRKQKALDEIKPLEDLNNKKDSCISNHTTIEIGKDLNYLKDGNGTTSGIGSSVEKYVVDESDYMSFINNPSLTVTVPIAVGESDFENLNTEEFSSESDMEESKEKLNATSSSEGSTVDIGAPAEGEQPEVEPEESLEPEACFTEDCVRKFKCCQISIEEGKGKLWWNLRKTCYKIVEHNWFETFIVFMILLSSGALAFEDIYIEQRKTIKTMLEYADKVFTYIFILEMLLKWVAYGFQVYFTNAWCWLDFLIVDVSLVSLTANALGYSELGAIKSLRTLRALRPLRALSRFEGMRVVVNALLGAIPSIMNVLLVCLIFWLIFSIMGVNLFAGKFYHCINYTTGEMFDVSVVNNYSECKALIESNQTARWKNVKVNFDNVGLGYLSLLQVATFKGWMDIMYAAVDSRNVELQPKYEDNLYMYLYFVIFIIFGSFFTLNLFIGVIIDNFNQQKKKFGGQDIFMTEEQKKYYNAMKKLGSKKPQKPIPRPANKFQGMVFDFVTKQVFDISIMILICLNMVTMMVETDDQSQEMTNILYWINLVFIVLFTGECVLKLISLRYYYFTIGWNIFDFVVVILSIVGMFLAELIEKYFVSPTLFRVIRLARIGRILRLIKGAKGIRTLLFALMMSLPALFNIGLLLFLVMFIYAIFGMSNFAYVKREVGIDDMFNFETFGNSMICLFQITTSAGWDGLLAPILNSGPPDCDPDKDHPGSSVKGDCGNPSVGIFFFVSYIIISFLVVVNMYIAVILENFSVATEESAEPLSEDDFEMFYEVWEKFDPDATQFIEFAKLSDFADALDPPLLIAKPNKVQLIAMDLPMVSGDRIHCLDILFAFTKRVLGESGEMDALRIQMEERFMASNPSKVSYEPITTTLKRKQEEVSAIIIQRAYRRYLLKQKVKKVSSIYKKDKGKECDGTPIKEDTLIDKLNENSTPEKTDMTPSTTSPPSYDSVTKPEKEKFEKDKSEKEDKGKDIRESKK
Assay: Voltage step activated (peak) sodium current, PatchXpress, hNaV1.2-WT
Type: cell-based
Settings: HEK293, HEK-293, steps to 0 mV from half-inactivation holding potential, read-out: hNav1.2 Peak INa (percent inhibition)
Recorded inhibition at 1 µM for the following molecules

| CHEMICAL SMILES | inhibition at 1 µM |
| --- | --- |
| CCOC(F)(F)c1nnc2cnc(-c3cnc(OCC(F)(F)F)c(F)c3)cn12 | < 50% |
| COC(F)(F)c1nnc2cnc(-c3cnc(OCC(F)(F)F)c(F)c3)cn12 | < 50% |
| COC(F)(F)c1nnc2cnc(-c3ccc(O[C@@H](C)C(F)(F)F)nc3)cn12 | > 50% |
| COC(F)(F)c1nnc2cnc(-c3cnc(O[C@@H](C)C(F)(F)F)c(F)c3)cn12 | > 50% |
| COC(F)(F)c1nnc2cnc(-c3ccc(OC(C)(C)C(F)(F)F)nc3)cn12 | > 50% |

Please look at the following molecule next.
Q: Specify inhibition at 1 µM for COC(F)(F)c1nnc2cnc(-c3ccc(O[C@H](C)C(F)(F)F)nc3)cn12 , system hNaV1.2-WT (Homo sapiens).
A: > 50%
